Below is a list of entries, each paired with its recorded Ki value.
Protein target, amino acids: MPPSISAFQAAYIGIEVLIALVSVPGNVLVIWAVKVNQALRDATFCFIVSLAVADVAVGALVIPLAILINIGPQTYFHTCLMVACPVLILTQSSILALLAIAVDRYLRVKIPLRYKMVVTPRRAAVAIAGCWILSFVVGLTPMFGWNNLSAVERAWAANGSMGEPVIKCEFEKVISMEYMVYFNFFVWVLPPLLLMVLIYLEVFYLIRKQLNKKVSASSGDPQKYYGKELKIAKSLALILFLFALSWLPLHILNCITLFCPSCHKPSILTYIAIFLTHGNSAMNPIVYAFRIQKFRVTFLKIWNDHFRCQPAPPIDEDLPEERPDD
# value in nM; strip the unit string

sampleSmiles: Cn1c(=O)c2[nH]c(-c3cccc(OCCN4CCCCC4)c3)nc2n(C)c1=O
measureUnit: nM
Ki: 2100

Name the recorded Ki for `Cn1c(=O)c2[nH]c(-c3cccc(OCCN4CCOCC4)c3)nc2n(C)c1=O` .
2100

Same for `Cn1c(=O)c2[nH]c(-c3cccc(OCCN4CCCC4)c3)nc2n(C)c1=O`
1600

Same question, `CCN(CC)CCOc1cccc(-c2nc3c([nH]2)c(=O)n(C)c(=O)n3C)c1` this time
14000

----------
# targetOrTestSystem: Adenosine receptor A2a (Homo sapiens, UniProt P29274)
# Sequence (P29274 whole entry): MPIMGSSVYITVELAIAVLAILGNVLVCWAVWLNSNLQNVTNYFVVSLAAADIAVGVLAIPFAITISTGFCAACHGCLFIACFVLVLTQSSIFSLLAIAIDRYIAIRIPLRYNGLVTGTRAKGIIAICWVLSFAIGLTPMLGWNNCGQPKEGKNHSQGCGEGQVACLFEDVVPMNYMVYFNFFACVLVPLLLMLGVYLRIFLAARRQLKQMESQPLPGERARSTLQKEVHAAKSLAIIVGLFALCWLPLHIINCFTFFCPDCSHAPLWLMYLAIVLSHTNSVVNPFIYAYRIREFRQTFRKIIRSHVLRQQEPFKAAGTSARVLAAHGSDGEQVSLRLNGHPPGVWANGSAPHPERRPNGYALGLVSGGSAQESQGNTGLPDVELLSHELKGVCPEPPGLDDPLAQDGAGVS
propertyMeasured: log10(Ki) (log10 of the value in nM)
Hey, these are logged values: log10 of Ki, nM being the unit before logging.

Completed entries (count: 5):
sampleSmiles: Cn1c(=O)c2[nH]c(-c3cccc(OCCN4CCCC4)c3)nc2n(C)c1=O
propertyMeasured: log10(Ki)
recordedResult: 2.60
//
sampleSmiles: CCN(CC)CCOc1ccc(-c2nc3c([nH]2)c(=O)n(C)c(=O)n3C)cc1OC
propertyMeasured: log10(Ki)
recordedResult: 3.04
//
sampleSmiles: COc1ccc(-c2nc3c([nH]2)c(=O)n(C)c(=O)n3C)cc1OCCN1CCOCC1
propertyMeasured: log10(Ki)
recordedResult: 2.00
//
sampleSmiles: COc1ccc(-c2nc3c([nH]2)c(=O)n(C)c(=O)n3C)cc1OCCN(C)C
propertyMeasured: log10(Ki)
recordedResult: 2.60
//
sampleSmiles: CCN(CC)CCOc1cc(-c2nc3c([nH]2)c(=O)n(C)c(=O)n3C)ccc1OC
propertyMeasured: log10(Ki)
recordedResult: 2.78

Any idea what log10(Ki) was measured for `CCN(CC)CCOc1cccc(-c2nc3c([nH]2)c(=O)n(C)c(=O)n3C)c1` ?
2.00

For `Cn1c(=O)c2[nH]c(-c3cccc(OCCN4CCCCC4)c3)nc2n(C)c1=O` then?
2.90

----------
Assay system Adenosine receptor A1 (Homo sapiens, UniProt P30542); read-out recorded as Ki.

Previously resolved entries follow.
sampleSmiles: COc1cc(-c2nc3c([nH]2)c(=O)n(C)c(=O)n3C)ccc1OCCN(C)C
targetOrTestSystem: Adenosine receptor A1 (Homo sapiens, UniProt P30542)
propertyMeasured: Ki
recordedResult: > 100 µM
//
sampleSmiles: COc1cc(-c2nc3c([nH]2)c(=O)n(C)c(=O)n3C)ccc1OCCN1CCOCC1
targetOrTestSystem: Adenosine receptor A1 (Homo sapiens, UniProt P30542)
propertyMeasured: Ki
recordedResult: > 100 µM

Now look at this one.
Any idea what its Ki is? The compound is `COc1cc(-c2nc3c([nH]2)c(=O)n(C)c(=O)n3C)ccc1OCCN1CCCCC1`
> 100 µM
